For each record, write down the corresponding residual activity.
- target system: Serine/threonine-protein kinase PLK2 (Homo sapiens)
- particulars: at 1 µM
- Description: Millipore: Percentage of residual kinase activity of PLK2 at 1uM relative to control. Control inhibitor: Phosphoric acid* at 0.3uM. Buffer: 8 mM MOPS pH 7.0, 0.2 mM EDTA
Be sure to follow the number with its unit.

Please review the following examples before continuing.
| item smiles | target system | residual activity |
| --- | --- | --- |
| O=c1cc(N2CCNCC2)oc2c(-c3ccccc3)cccc12 | Serine/threonine-protein kinase PLK2 (Homo sapiens) | 99% |
| O=C(CCCc1ccc(-c2ccccc2F)cc1)Nc1ccc(O)cc1 | Serine/threonine-protein kinase PLK2 (Homo sapiens) | 109% |
| Nc1nc(Nc2ccc(S(N)(=O)=O)cc2)nn1C(=O)c1c(F)cccc1F | Serine/threonine-protein kinase PLK2 (Homo sapiens) | 96% |
| O=C1C(Cl)=C(N2C(=O)CCC2=O)C(=O)c2ccccc21 | Serine/threonine-protein kinase PLK2 (Homo sapiens) | 100% |
| N#C/C(=C1/Nc2ccccc2S1)c1ccnc(NCCc2cccnc2)n1 | Serine/threonine-protein kinase PLK2 (Homo sapiens) | 97% |
| COc1cc2nccc(Oc3ccc(NC(=O)Nc4cc(C)on4)c(Cl)c3)c2cc1OC | Serine/threonine-protein kinase PLK2 (Homo sapiens) | 105% |
| O=C1Nc2ccc(Cl)cc2/C1=C/c1cc(Cl)c(O)c(Cl)c1 | Serine/threonine-protein kinase PLK2 (Homo sapiens) | 94% |
| COc1cc2ncnc(Nc3cccc(Cl)c3)c2cc1OC | Serine/threonine-protein kinase PLK2 (Homo sapiens) | 109% |
| NC(=O)c1ccc(-c2nc(-c3ccc4c(c3)OCCO4)c(-c3ccccn3)[nH]2)cc1 | Serine/threonine-protein kinase PLK2 (Homo sapiens) | 93% |

We next turn to a different molecule, shown below.
Problem: Please tell me: residual activity of CC(C)c1nn(-c2c(Cl)cccc2Cl)c2nc(Cc3ccc(OCCO)cc3)[nH]c(=O)c12 , system Serine/threonine-protein kinase PLK2 (Homo sapiens)?;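 further: residual PLK2 kinase activity expressed as percent of uninhibited control, measured in MOPS buffer at pH 7.0 with EDTA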
Result: 100%

###

- target system: Serine/threonine-protein kinase N2 (Homo sapiens) (UniProt Q16513)
- Sequence (Q16513 whole entry, looked up): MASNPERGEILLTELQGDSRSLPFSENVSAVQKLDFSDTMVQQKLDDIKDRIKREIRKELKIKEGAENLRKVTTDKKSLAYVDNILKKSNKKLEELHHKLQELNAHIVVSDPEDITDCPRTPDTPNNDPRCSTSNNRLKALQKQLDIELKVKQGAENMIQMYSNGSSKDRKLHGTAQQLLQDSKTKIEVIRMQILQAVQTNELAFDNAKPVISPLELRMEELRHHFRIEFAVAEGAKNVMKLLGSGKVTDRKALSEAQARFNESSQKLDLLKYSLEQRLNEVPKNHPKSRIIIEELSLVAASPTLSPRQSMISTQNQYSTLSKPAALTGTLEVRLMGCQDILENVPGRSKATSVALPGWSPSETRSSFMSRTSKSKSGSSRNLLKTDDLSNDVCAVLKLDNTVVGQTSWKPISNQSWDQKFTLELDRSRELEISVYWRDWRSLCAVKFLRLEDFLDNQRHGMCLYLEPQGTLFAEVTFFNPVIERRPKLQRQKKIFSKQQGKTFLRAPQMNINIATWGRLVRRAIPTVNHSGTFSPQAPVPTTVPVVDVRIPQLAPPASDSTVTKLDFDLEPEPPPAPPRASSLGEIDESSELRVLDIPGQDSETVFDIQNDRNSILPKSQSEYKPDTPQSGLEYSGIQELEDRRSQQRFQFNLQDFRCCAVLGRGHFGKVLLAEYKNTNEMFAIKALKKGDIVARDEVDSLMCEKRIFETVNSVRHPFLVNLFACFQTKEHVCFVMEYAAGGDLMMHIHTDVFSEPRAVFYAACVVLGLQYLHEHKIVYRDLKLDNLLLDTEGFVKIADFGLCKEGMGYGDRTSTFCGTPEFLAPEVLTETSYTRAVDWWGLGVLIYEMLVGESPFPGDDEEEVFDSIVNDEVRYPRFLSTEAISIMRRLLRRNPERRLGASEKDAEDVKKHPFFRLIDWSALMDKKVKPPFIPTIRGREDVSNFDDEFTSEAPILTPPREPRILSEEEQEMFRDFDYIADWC
- particulars: at 1 µM
We use 90% as the dividing line for residual activity: on or above the line is class 1, below is class 0.

| molecule | class label |
| --- | --- |
| COc1ccc2c(c1)c(C1=C(c3c[nH]c4ccccc34)C(=O)NC1=O)cn2CCCN(C)C | class 0 |
| CC(C)(C)c1nc2c3ccc(F)cc3c3c(=O)[nH]ccc3c2[nH]1 | class 0 |
| O=C(c1cc2cc(O)ccc2[nH]1)c1cc2cc(O)ccc2[nH]1 | class 0 |
| c1ccc(-c2cnc(Nc3ccc(OCCN4CCCC4)cc3)s2)cc1 | class 1 |
| O=C1C(Cl)=C(N2C(=O)CCC2=O)C(=O)c2ccccc21 | class 0 |

Problem: Test whether the molecule O=C(NC(NC(=S)Nc1ccc(F)c([N+](=O)[O-])c1)C(Cl)(Cl)Cl)C(c1ccccc1)c1ccccc1 (stereo not drawn) records residual activity of 90% or higher.
Result: class 1

Problem: Test whether the molecule NC(=O)Nc1sc(-c2ccc(F)cc2)cc1C(N)=O records residual activity of 90% or higher.
Result: class 0

###

For each record, write down the corresponding residual activity.
- target system: Tyrosine-protein kinase SYK (Homo sapiens)
- particulars: at 1 µM
Be sure to follow the number with its unit.

Please review the following examples before continuing.
| item smiles | measurement name | observed |
| --- | --- | --- |
| O=C(Nc1nc2ccccc2n1CCN1CCOCC1)c1cccc([N+](=O)[O-])c1 | residual activity | 123% |
| COc1cc2c(cc1OC)-c1n[nH]c(Nc3cccc(F)c3)c1C2 | residual activity | 117% |

// each listed molecule needs a value for residual activity
1. NCCNc1ncc(C(N)=O)c(Nc2cccc(C(F)(F)F)c2)n1
2. O=C(c1cc2cc(O)ccc2[nH]1)c1cc2cc(O)ccc2[nH]1

Result:
6%
82%

Each recorded value in this set is attributed to ChEMBL document CHEMBL2218924.
